# measured.target: Serotonin 3 (5-HT3) receptor
# assay.summary: Binding affinity towards [3H]quipazine labeled 5-hydroxytryptamine 3 receptor sites in HG108-15
pKi: −log10 of the molar value.
We use 9 as the dividing line for pKi: on or above the line is Satisfied, below is Not satisfied.

Solved entries:
# molecule, assigned.class
data = [
    ("CCCCn1c(=O)cc(C(=O)NC2CC3CCC(C2)N3C)c2ccccc21 (stereo unspecified)", "Not satisfied"),
    ("CC(C)Cn1c(=O)cc(C(=O)OC2CC3CCC(C2)N3C)c2ccccc21 (stereo unspecified)", "Satisfied"),
    ("CCCCCCOc1cc(C(=O)OC2CC3CCC(C2)N3C)c2ccccc2n1 (stereo unspecified)", "Not satisfied"),
    ("CC(C)COc1cc(C(=O)OC2CC3CCC(C2)N3C)c2ccccc2n1 (stereo unspecified)", "Satisfied"),
    ("CN1C2CCC1CC(OC(=O)c1cnc3ccccc3c1O)C2 (stereo unspecified)", "Not satisfied"),
    ("CCCn1c(=O)cc(C(=O)OC2CC3CCC(C2)N3C)c2ccccc21 (stereo unspecified)", "Satisfied"),
    ("CCCCOc1cc(C(=O)NC2CC3CCC(C2)N3C)c2ccccc2n1 (stereo unspecified)", "Not satisfied"),
    ("CN1C2CCC1CC(NC(=O)c1cc(=O)n(-c3ccccc3)c3ccccc13)C2 (stereo unspecified)", "Not satisfied"),
    ("CN1C2CCC1CC(OC(=O)c1cc(=O)n(C)c3ccccc13)C2 (stereo unspecified)", "Not satisfied"),
    ("CN1C2CCC1CC(OC(=O)c1cc(=O)n(-c3ccccc3)c3ccccc13)C2 (stereo unspecified)", "Satisfied"),
]

**Q:** hey, is pKi for this one >= 9? CC(C)Oc1cc(C(=O)NC2CC3CCC(C2)N3C)c2ccccc2n1 (stereo unspecified)
**A:** Not satisfied

**Q:** Is pKi at least 9? Consider Cn1cc(C(=O)C2CCc3nc[nH]c3C2)c2ccccc21 (stereo unspecified)
**A:** Satisfied

**Q:** Could you please find out whether CCCn1c(=O)cc(C(=O)NC2CC3CCC(C2)N3C)c2ccccc21 (stereo unspecified) has pKi that meets 9 or exceeds it?
**A:** Not satisfied

**Q:** # check: pKi of Cc1nc2ccccc2c(O)c1C(=O)NC1CC2CCC(C1)N2C (stereo unspecified) is greater than or equal to 9
**A:** Not satisfied
